# assayName: MTT cytotoxicity assay
# Format: cell-based
# assaySetup: human
quantityMeasured: IC50 at 24 h (µg/mL)
A number alone suffices; assume µg/mL.

Asked: Consider the molecule shown here: O=C(N/N=C/c1ccc([N+](=O)[O-])o1)c1ccc(O)cc1 [Nifuroxazide] What is its recorded IC50 at 24 h?
Given back: 122
